# test: in vivo
# assay-context: mouse, po
assay-readout: LD50 at 168 h

- compound: "COC(=O)C1=CO[C@@H](C)[C@@H]2CN3CCc4c([nH]c5ccccc45)[C@@H]3C[C@H]12 [Tetrahydroalstonine]"
  reported-value: "> 3000 mg/kg"
